# assay_procedure: Half life in dog plasma at 1 mg/kg, iv
# Type: ADME, organism-based, Canis lupus familiaris
measured_endpoint: half-life (h)
API: value field is a number in h; no unit string.

**Query** Which measured half-life value corresponds to Cc1ccc(-n2nc(C(=O)N3C[C@@H](C)N[C@@H](C)C3)nc2-c2ccc3c(c2)N(C2CCCC2)[C@H](C)C(=O)N3C)cc1 ?
**Result** 9.4

----------
# assay_procedure: AUC (0 to infinity) in rat brain at 50 mg/kg, po
# Type: ADME, organism-based
# Set-up: dose 50 mg/kg, time infinity, route oral
measured_endpoint: AUC(0-inf) (ng·h/mL)
API: value field is a number in ng·h/mL; no unit string.

**Query** Which measured AUC(0-inf) value corresponds to Cc1ccc(-n2nc(C(=O)N3C[C@@H](C)N[C@@H](C)C3)nc2-c2ccc3c(c2)N(C2CCCC2)[C@H](C)C(=O)N3C)cc1 ?
**Result** 399
